src = patent US20250215100A1

This listing pairs binders with measured EC50.
Target: T1, human CD40 on cells (human, UniProt P25942 21-277)
T1 construct: whole, on cells; The cell line used is named in each row's assay; also called hCD40; TNFRSF5
T1 sequence (P25942 21-277): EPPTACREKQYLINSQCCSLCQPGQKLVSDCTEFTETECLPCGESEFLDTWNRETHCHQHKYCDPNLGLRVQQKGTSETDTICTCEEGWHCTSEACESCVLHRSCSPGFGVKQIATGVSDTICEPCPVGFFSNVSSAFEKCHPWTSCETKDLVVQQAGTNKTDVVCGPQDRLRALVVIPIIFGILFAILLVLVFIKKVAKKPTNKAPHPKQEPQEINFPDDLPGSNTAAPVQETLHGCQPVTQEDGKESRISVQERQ
Test: FACS, CHO-K1/hCD40 cells
# value in nM; strip the unit string

Incoming: Which EC50 value is on record for PR006493 (antibody, human IgG1, kappa, V domains shown, PR003379 variant L:N92L; human IgG1 L234A, L235A, G237A) VH: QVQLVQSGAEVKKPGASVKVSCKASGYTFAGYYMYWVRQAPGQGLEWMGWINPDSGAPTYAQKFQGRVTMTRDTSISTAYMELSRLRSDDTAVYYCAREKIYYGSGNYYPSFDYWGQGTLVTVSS VL: DIQLTQSPSFLSASVGDRVTITCRASQGISSYLAWYQQKPGKAPKLLIYAASTLQSGVPSRFSGSGSGTEFTLTISSLQPEDFATYYCQQLLSYPWTFGQGTKVEIKR ?
Outgoing: 5.26

Incoming: Which EC50 value is on record for PR006514 (antibody, human IgG1, kappa, V domains shown, PR003379 variant L:S93V; human IgG1 L234A, L235A, G237A) VH: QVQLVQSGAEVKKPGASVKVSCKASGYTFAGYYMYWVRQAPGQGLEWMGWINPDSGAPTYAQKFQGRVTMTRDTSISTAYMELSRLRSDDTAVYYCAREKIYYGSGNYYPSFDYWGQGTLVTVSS VL: DIQLTQSPSFLSASVGDRVTITCRASQGISSYLAWYQQKPGKAPKLLIYAASTLQSGVPSRFSGSGSGTEFTLTISSLQPEDFATYYCQQLNVYPWTFGQGTKVEIKR ?
Outgoing: 5.08

Incoming: Which EC50 value is on record for PR006498 (antibody, human IgG1, kappa, V domains shown, PR003379 variant L:N92I; human IgG1 L234A, L235A, G237A) VH: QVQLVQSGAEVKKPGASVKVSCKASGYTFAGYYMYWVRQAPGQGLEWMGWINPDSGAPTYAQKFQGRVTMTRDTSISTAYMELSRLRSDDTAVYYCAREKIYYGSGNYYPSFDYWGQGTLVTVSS VL: DIQLTQSPSFLSASVGDRVTITCRASQGISSYLAWYQQKPGKAPKLLIYAASTLQSGVPSRFSGSGSGTEFTLTISSLQPEDFATYYCQQLISYPWTFGQGTKVEIKR ?
Outgoing: 4.97

Incoming: Which EC50 value is on record for PR006513 (antibody, human IgG1, kappa, V domains shown, PR003379 variant L:S93Q; human IgG1 L234A, L235A, G237A) VH: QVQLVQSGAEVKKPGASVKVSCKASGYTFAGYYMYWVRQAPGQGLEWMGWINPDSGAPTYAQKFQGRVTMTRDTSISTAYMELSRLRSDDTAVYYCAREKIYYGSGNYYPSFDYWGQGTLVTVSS VL: DIQLTQSPSFLSASVGDRVTITCRASQGISSYLAWYQQKPGKAPKLLIYAASTLQSGVPSRFSGSGSGTEFTLTISSLQPEDFATYYCQQLNQYPWTFGQGTKVEIKR ?
Outgoing: 7.51

Continue with the next binder.
Incoming: Which EC50 value is on record for PR006510 (antibody, human IgG1, kappa, V domains shown, PR003379 variant L:S93R; human IgG1 L234A, L235A, G237A) VH: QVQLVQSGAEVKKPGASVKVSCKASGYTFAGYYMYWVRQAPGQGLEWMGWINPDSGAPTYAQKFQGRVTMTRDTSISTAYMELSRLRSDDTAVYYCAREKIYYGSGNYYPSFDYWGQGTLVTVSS VL: DIQLTQSPSFLSASVGDRVTITCRASQGISSYLAWYQQKPGKAPKLLIYAASTLQSGVPSRFSGSGSGTEFTLTISSLQPEDFATYYCQQLNRYPWTFGQGTKVEIKR ?
Outgoing: 4.98
